Tested on: HCV 1a replicon containing NS5A mutation Y93C
Assay: HCV 1a Y93C replicon assay
Assay type: cell-based
Conditions: Hepatitis C virus, read-out: EC50 (nM) 1a Y93C
Overview of recorded EC50 for various compounds
The response must be a number in nM with no trailing unit.

COMPOUND | TARGET OR SYSTEM | EC50 / nM
COC(=O)N[C@H](C(=O)N1CCC[C@H]1c1nc2ccc(-c3ccc(-c4ccc5nc([C@@H]6CCCN6C(=O)[C@@H](NC(=O)OC)C(C)C)[nH]c5c4F)cc3)c(F)c2[nH]1)C(C)C | HCV 1a replicon containing NS5A mutation Y93C | 141
COC(=O)NC(C(=O)N1CCCC1c1nc2cc(-c3ccc(-c4ccc5[nH]c([C@@H]6CCCN6C(=O)[C@@H](NC(=O)OC)C(C)C)nc5c4)cc3)ccc2[nH]1)C(C)C (some centres unmarked) | HCV 1a replicon containing NS5A mutation Y93C | 40
COC(=O)N[C@H](C(=O)N1CCC[C@H]1c1nc2c(F)cc(-c3ccc(-c4cc(F)c5nc([C@@H]6CCCN6C(=O)[C@@H](NC(=O)OC)C(C)C)[nH]c5c4)cc3)cc2[nH]1)C(C)C | HCV 1a replicon containing NS5A mutation Y93C | 34
COC(=O)N[C@H](C(=O)N1CCC[C@H]1c1nc2cc(F)c(-c3ccc(-c4c(F)cc5nc([C@@H]6CCCN6C(=O)[C@@H](NC(=O)OC)C(C)C)[nH]c5c4F)cc3)c(F)c2[nH]1)C(C)C | HCV 1a replicon containing NS5A mutation Y93C | 103

Let's switch to this compound now.
Would you mind telling me what EC50 value was observed for `COC(=O)N[C@H](C(=O)N1CCC[C@H]1c1nc2cc(F)c(-c3ccc(-c4cc5[nH]c([C@@H]6CCCN6C(=O)[C@@H](NC(=O)OC)C(C)C)nc5cc4F)cc3)cc2[nH]1)C(C)C` ? 26

---

Overview of recorded EC50 for various molecules
Tested on: HCV genotype 3a replicon
Test: HCV genotype 3a replicon assay
Type: cell-based, Hepatitis C virus
Conditions: Hepatitis C virus, read-out: EC50 (nM, in the absence of HP) 3a, absence of human plasma; Table 5

CPD SMILES | EC50
COC(=O)N[C@H](C(=O)N1CCC[C@H]1c1nc2cc([C@H]3CC[C@H](c4ccc5[nH]c([C@@H]6CCCN6C(=O)[C@@H](NC(=O)OC)C(C)C)nc5c4)N3c3ccc(N4CCCCC4)c(C#N)c3)ccc2[nH]1)C(C)C | ≤ 0.05 nM

Let's switch to this molecule now.
Would you mind telling me what EC50 value was observed for `COC(=O)N[C@H](C(=O)N1CCC[C@H]1c1nc2cc([C@H]3CC[C@H](c4ccc5[nH]c([C@@H]6CCCN6C(=O)[C@@H](NC(=O)OC)C(C)C)nc5c4)N3c3cc(F)c(N4CCCCC4)c(F)c3)ccc2[nH]1)C(C)C` ? ≤ 0.05 nM

---

Overview of recorded EC50 for various compounds
Test system: HCV 1b-Con1 replicon
Assay: HCV 1b-Con1 replicon assay in the presence of 5% FBS (luciferase reporter)
Format: cell-based
Conditions: Hepatitis C virus

COMPOUND | EC50
COC(=O)N[C@H](C(=O)N1C(c2nc3cc([C@H]4CCC(c5ccc6[nH]c([C@@H]7C[C@@H]8CCC[C@@H]8N7C(=O)[C@@H](NC(=O)OC)C(C)C)nc6c5)N4c4cc(F)c(N5CCCCC5)c(F)c4)ccc3[nH]2)C[C@@H]2CCC[C@@H]21)C(C)C (some centres unmarked) | < 0.1 nM

Let's switch to this compound now.
Would you mind telling me what EC50 value was observed for COC(=O)N[C@H](C(=O)N1CCC[C@H]1c1nc2cc(C3CC[C@H](c4cc5nc([C@@H]6CCCN6C(=O)[C@@H](NC(=O)OC)C(C)C)[nH]c5cc4F)N3c3cc(F)c(N4CC(C)CC(C)C4)c(F)c3)c(F)cc2[nH]1)C(C)C (some centres unmarked) ? < 0.1 nM

---

Tested on: HCV genotype 3a replicon
Test: HCV genotype 3a replicon assay
Format: cell-based, Hepatitis C virus
Conditions: Hepatitis C virus, read-out: EC50 (nM, in the absence of HP) 3a, absence of human plasma; Table 5
PROPERTY: EC50

CPD SMILES | PROPERTY | VAL
COC(=O)N[C@H](C(=O)N1CCC[C@H]1c1nc2cc([C@H]3CC[C@H](c4ccc5[nH]c([C@@H]6CCCN6C(=O)[C@@H](NC(=O)OC)C(C)C)nc5c4)N3c3ccc(N4CCCCC4)c(F)c3)ccc2[nH]1)C(C)C | EC50 | ≤ 0.05 nM
COC(=O)N[C@H](C(=O)N1CCC[C@H]1c1nc2cc([C@H]3CC[C@H](c4ccc5[nH]c([C@@H]6CCCN6C(=O)[C@@H](NC(=O)OC)C(C)C)nc5c4)N3c3ccc(C(C)(C)C)cc3)ccc2[nH]1)C(C)C | EC50 | ≤ 0.05 nM

Let's switch to this compound now.
Would you mind telling me what EC50 value was observed for `COC(=O)N[C@H](C(=O)N1CCC[C@H]1c1nc2cc([C@H]3CC[C@H](c4ccc5[nH]c([C@@H]6CCCN6C(=O)[C@@H](NC(=O)OC)C(C)C)nc5c4)N3c3ccc(N4CCCCC4)c(Cl)c3)ccc2[nH]1)C(C)C` ? ≤ 0.05 nM

---

System: HCV genotype 1b replicon
Test: HCV genotype 1b replicon assay
Type: cell-based, Hepatitis C virus
Settings: Hepatitis C virus, 5% FBS; Table 4; read-out: EC50 (nM, in the presence of 5% FBS) 1b
PROPERTY: EC50
Please give the number followed by its unit.

Would you mind telling me what EC50 value was observed for `COC(=O)N[C@H](C(=O)N1CCC[C@H]1C(=O)Nc1ccc([C@@H]2CC[C@@H](c3ccc(NC(=O)[C@@H]4CCCN4C(=O)[C@@H](NC(=O)OC)C(C)C)cc3)N2)cc1)C(C)C` ? 320 nM

---

Test system: HCV genotype 1a replicon
Experiment: HCV genotype 1a replicon assay
Type: cell-based, Hepatitis C virus
Details: Hepatitis C virus, 5% FBS and 40% human plasma; Table 3; read-out: EC50 (nM, in the presence of 5% FBS and 40% HP) 1a
PROPERTY: EC50

Previously resolved entries follow.
CPD SMILES | EC50
CCOC(=O)N[C@H](C(=O)N1CCC[C@H]1c1nc2cc(-c3ccc(-c4ccc5nc([C@@H]6CCCN6C(=O)[C@@H](NC(=O)OCC)C(C)C)[nH]c5c4)nc3)ccc2[nH]1)C(C)C | 83 nM
COC(=O)N[C@H](C(=O)N1CCC[C@H]1c1nc2cc(-c3ccc(-c4ccc5nc([C@@H]6CCCN6C(=O)[C@@H](NC(=O)OC)C(C)C)[nH]c5c4)nc3)ccc2[nH]1)C(C)C | < 3.2 nM

Let's switch to this molecule now.
Would you mind telling me what EC50 value was observed for `COC(=O)N[C@H](C(=O)N1CCC[C@H]1c1nc2cc([C@H]3CC[C@H](c4ccc5[nH]c([C@@H]6CCCN6C(=O)[C@@H](NC(=O)OC)C(C)C)nc5c4)N3)ccc2[nH]1)C(C)C` ? 2500 to 8000 nM

---

Test system: HCV genotype 1b replicon
Experiment: HCV genotype 1b replicon assay
Assay type: cell-based, Hepatitis C virus
Details: Hepatitis C virus, replicon assay in the presence of 5% (v/v) FBS; read-out: EC50 (nM) 1b
PROPERTY: EC50 (nM)
The response must be a number in nM with no trailing unit.

Would you mind telling me what EC50 value was observed for COC(=O)N[C@H](C(=O)N1CCC[C@H]1c1ncc(C2=CCC(c3ccc(-c4cnc([C@@H]5CCCN5C(=O)[C@@H](NC(=O)OC)C(C)C)[nH]4)cc3)CC2)[nH]1)C(C)C (stereo partly shown) ? 0.03

---

Overview of recorded EC50 for various molecules
Tested on: HCV 1b-Con1 replicon
Assay: HCV 1b-Con1 replicon assay in the presence of 5% FBS (luciferase reporter)
Format: cell-based
Details: Hepatitis C virus

Previously resolved entries follow.
MOLECULE | EC50
COC(=O)N[C@H](C(=O)N1CCCC1c1nc2cc([C@H]3CCC(c4cc5nc([C@@H]6CCCN6C(=O)[C@@H](NC(=O)OC)C(C)C)[nH]c5cc4F)N3c3cnc(N4CCC(c5ccccc5)CC4)nc3)c(F)cc2[nH]1)C(C)C (stereo in doubt) | < 0.1 nM
COC(=O)N[C@H](C(=O)N1C(c2nc3cc([C@H]4CC[C@H](c5ccc6[nH]c([C@@H]7C[C@@H]8CCC[C@@H]8N7C(=O)[C@@H](NC(=O)OC)C(C)C)nc6c5)N4c4ccc(C(C)(C)C)cc4)ccc3[nH]2)C[C@@H]2CCC[C@@H]21)C(C)C (some centres unmarked) | < 0.1 nM

Would you mind telling me what EC50 value was observed for `COC(=O)N[C@H](C(=O)N1CCC[C@H]1c1nc2cc([C@H]3CC[C@H](c4ccc5[nH]c([C@@H]6CCCN6C(=O)[C@@H](NC(=O)OC)C(C)C)nc5c4)N3c3ccc(N4CCCCC4=O)cc3)ccc2[nH]1)C(C)C` ? > 10000 nM

Would you mind telling me what EC50 value was observed for `CC(C)(C)OC(=O)NCC(=O)N1CCC[C@H]1c1nc2cc([C@@H]3CC[C@@H](c4ccc5[nH]c([C@@H]6CCCN6C(=O)CNC(=O)OC(C)(C)C)nc5c4)N3c3ccc(N4CCCCC4)c(F)c3)ccc2[nH]1` ? > 10000 nM

Would you mind telling me what EC50 value was observed for COC(=O)N[C@H](C(=O)N1CCC[C@H]1c1nc2cc(C3CC[C@H](c4ccc5[nH]c([C@@H]6CCCN6C(=O)[C@@H](NC(=O)OC)C6CCOCC6)nc5c4)N3c3cc(F)c(N4CCCCC4)c(F)c3)ccc2[nH]1)C1CCOCC1 (stereo in doubt) ? < 0.1 nM
